# measurement_description: solvent given as SMILES
# test_parameters: in Cc1ccccc1
assay_endpoint: log10 fluorescence lifetime (log10 of the value in ns)

{"compound_smiles": "CCCCCCCC(=O)Oc1ccc2c3cccc4c(OC(=O)CCCCCCC)ccc(c5cccc1c52)c43", "log10 fluorescence lifetime": 0.57}
{"compound_smiles": "CN1C(=CC=Cc2nc3nc4ccccc4nc3s2)C(C)(C)c2ccccc21", "log10 fluorescence lifetime": -0.96}
{"compound_smiles": "CN(C)c1ccc(/C=C/C(=C(C#N)C#N)c2ccc3c4c(cccc24)CC3)cc1", "log10 fluorescence lifetime": 0.59}
{"compound_smiles": "CCCCCCCCN1c2ccc(C#Cc3ccc(C(F)(F)F)cc3)cc2Sc2cc(C=O)ccc21", "log10 fluorescence lifetime": 0.87}
{"compound_smiles": "N#Cc1c(-n2c3ccc(Br)cc3c3cc(Br)ccc32)c(C#N)c(-n2c3ccc(Br)cc3c3cc(Br)ccc32)c(-n2c3ccc(Br)cc3c3cc(Br)ccc32)c1-n1c2ccc(Br)cc2c2cc(Br)ccc21", "log10 fluorescence lifetime": -0.40}
{"compound_smiles": "CC1(C)c2cc(C#N)ccc2-c2ccc(N3c4ccccc4Oc4ccccc43)cc21", "log10 fluorescence lifetime": 0.69}
{"compound_smiles": "N#Cc1c(-n2c3ccccc3c3ccccc32)c(-n2c3ccccc3c3ccccc32)c(-n2c3ccccc3c3ccccc32)c(-n2c3ccccc3c3ccccc32)c1-n1c2ccccc2c2ccccc21", "log10 fluorescence lifetime": 0.58}
{"compound_smiles": "CCCCOC(=O)c1cc(Oc2ccc(C(C)(C)C)cc2)c2c3c(Cl)cc4c5c(cc(Cl)c(c6c(Oc7ccc(C(C)(C)C)cc7)cc(C(=O)OCCCC)c1c26)c53)C(=O)N(c1c(C(C)C)cccc1C(C)C)C4=O", "log10 fluorescence lifetime": 0.81}
